# credit: paper doi:10.1101/2024.06.26.600905

- Assayed System: His6-OSR1 CCT (human OSR1 433-527) (human, UniProt O95747 433-527)
- Sequence (O95747 433-527): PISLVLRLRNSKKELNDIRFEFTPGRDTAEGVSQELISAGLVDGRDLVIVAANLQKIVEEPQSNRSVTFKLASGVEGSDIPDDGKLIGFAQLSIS
- Protocol Description: fluorescence polarisation
Where no end group is shown, it is not given here. [ ]: non-standard residue; d: D form. pY = N[C@@H](Cc1ccc(OP(=O)(O)O)cc1)C(=O)O
Value Type: binding result

Reference set, count: 4
[
  {
    "Binder": "LRRRNFKVMI[pY]QD [p-Tyr156 Cavin1 peptide (Cavin1 146-158)]",
    "binding result": "binds"
  },
  {
    "Binder": "QLVSRFQVTSSKE [hWNK4 1012-1024 peptide, glycine to serine at the -2 position]",
    "binding result": "binds"
  },
  {
    "Binder": "SAVARFIVSPVPE [hWNK1 1253-1265 peptide, -3 glycine and -2 arginine to valine-alanine]",
    "binding result": "binds"
  },
  {
    "Binder": "QLVGRFQVASSKE [hWNK4 1012-1024 peptide, threonine to alanine at the +3 position]",
    "binding result": "binds"
  }
]

Lab note: next binder to report on.
Name the recorded binding result for LRRRNFKVMIYQD [Cavin1 146-158 motif peptide] .
binds
